test: Half time in Sprague-Dawley rat at 1 mg/kg, iv; format: ADME, organism-based; conditions: in vivo
Here the recorded half-life is given for each entry.
Readout: half-life

* CN1C(=O)c2c(nn(Cc3ccc(-c4ccccn4)cc3)c2Nc2ccccc2)N2C1=N[C@@H]1CCC[C@@H]12 | 0.72 h
* CN1C(=O)c2c(nn(Cc3ccc(C(F)(F)F)cc3)c2Nc2ccccc2)N2C1=N[C@@H]1CCC[C@@H]12 | 1.4 h
* CN1C(=O)c2c(nn(Cc3ccc(-c4cccc(F)n4)cc3)c2Nc2ccccc2)N2C1=N[C@@H]1CCC[C@@H]12.O=P(O)(O)O [LENRISPODUN PHOSPHATE] | 1.4 h
* CN1C(=O)c2c(nn(Cc3ccc(C(F)(F)F)cc3)c2Nc2ccc(F)cc2)N2C1=N[C@@H]1CCC[C@@H]12 | 1.5 h

---

assay: in vivo; conditions: C57BL/6, mouse, brain/plasma
Readout: Kp

- CN1C(=O)c2c(nn(Cc3ccc(-c4cccc(F)n4)cc3)c2Cc2ccccc2)N2C1=N[C@@H]1CCC[C@@H]12: 1.2
- CN1C(=O)c2c(nn(Cc3ccc(-c4cccc(F)n4)cc3)c2Cc2ccc(F)cc2)N2C1=N[C@@H]1CCC[C@@H]12: 1.6
- CN1C(=O)c2c(nn(Cc3ccc(-c4cccc(F)n4)cc3)c2Oc2ccccc2)N2C1=N[C@@H]1CCC[C@@H]12: 0.9
- CN1C(=O)c2c(nn(Cc3ccc(C(F)(F)F)cc3)c2Nc2ccc(F)cc2)N2C1=N[C@@H]1CCC[C@@H]12: 6.9
- CN1C(=O)c2c(nn(Cc3ccc(-c4cccc(F)n4)cc3)c2Sc2ccccc2)N2C1=N[C@@H]1CCC[C@@H]12: 0.8
- CN1C(=O)c2c(nn(Cc3ccc(S(N)(=O)=O)cc3)c2Nc2ccccc2)N2C1=N[C@@H]1CCC[C@@H]12: 0.02
- CN1C(=O)c2c(nn(Cc3ccc(-c4cccc(F)n4)cc3)c2Oc2ccc(F)cc2)N2C1=N[C@@H]1CCC[C@@H]12: 0.9

---

target: 3',5'-cyclic-AMP phosphodiesterase 4A (Homo sapiens, UniProt P27815); assay: Inhibition of recombinant full lenght human PDE4A using fluorescent labeled cAMP as substrate after 15 mins by IMAP assay
Sequence (P27815 whole entry): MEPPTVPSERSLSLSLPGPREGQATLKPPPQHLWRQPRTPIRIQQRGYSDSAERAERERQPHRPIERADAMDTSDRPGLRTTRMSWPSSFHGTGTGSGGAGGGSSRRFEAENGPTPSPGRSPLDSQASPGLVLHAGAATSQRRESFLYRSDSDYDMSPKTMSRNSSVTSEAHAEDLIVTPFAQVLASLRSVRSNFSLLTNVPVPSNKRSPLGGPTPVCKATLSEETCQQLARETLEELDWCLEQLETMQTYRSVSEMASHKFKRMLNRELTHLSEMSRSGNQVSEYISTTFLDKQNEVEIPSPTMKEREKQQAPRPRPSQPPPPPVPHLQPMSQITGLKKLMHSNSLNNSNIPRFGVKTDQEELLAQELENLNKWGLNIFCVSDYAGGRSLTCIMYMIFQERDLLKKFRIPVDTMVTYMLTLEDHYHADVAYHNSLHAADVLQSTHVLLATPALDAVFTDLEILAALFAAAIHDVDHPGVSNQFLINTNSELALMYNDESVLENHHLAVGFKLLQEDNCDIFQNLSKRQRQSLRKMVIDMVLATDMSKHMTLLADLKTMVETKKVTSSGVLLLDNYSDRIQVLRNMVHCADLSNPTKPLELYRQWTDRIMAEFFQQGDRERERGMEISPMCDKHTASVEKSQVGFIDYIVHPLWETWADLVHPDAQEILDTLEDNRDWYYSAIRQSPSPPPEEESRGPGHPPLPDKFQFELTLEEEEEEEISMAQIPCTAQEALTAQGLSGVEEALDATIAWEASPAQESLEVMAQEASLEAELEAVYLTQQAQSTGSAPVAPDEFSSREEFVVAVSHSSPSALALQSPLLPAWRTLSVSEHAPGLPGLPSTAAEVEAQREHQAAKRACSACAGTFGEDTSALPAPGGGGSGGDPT
pKi: −log10 of the molar value.
Would you please tag the item Condition met when its pKi is 6 or above, and Condition not met when it is below?

• CN1C(=O)c2c(nn(Cc3ccc(-c4ccc(F)cc4)cc3)c2Nc2ccccc2)N2C1=N[C@@H]1CCC[C@@H]12 = Condition met
• CN1C(=O)c2c(nn(Cc3ccc(C(F)(F)F)cc3)c2Nc2ccc(F)cc2)N2C1=N[C@@H]1CCC[C@@H]12 = Condition met
• CN1C(=O)c2c(nn(Cc3ccc(-c4cccc(F)n4)cc3)c2Oc2ccc(F)cc2)N2C1=N[C@@H]1CCC[C@@H]12 = Condition met
• CN1C(=O)c2c(nn(Cc3ccc(S(C)(=O)=O)cc3)c2Nc2ccccc2)N2C1=N[C@@H]1CCC[C@@H]12 = Condition met
• CN1C(=O)c2c(nn(Cc3ccc(-c4cccc(F)n4)cc3)c2NCc2ccccc2)N2C1=N[C@@H]1CCC[C@@H]12 = Condition not met
• CN1C(=O)c2c(nn(Cc3ccc(-c4ccccc4)cc3)c2Nc2ccccc2)N2C[C@@H](Cc3ccccc3)N=C12 = Condition not met
• CN1C(=O)c2c(nn(Cc3ccc(-c4cccc(F)n4)cc3)c2Oc2ccccc2)N2C1=N[C@@H]1CCC[C@@H]12 = Condition met
• C[C@@H]1CN2C(=N1)N(C)C(=O)c1c2nn(Cc2ccc(-c3ccccc3)cc2)c1Nc1ccccc1 = Condition not met
• CN1C(=O)c2c(nn(Cc3ccc(-c4ccccc4)cc3)c2Nc2ccccc2)N2C[C@@H](CO)N=C12 = Condition not met
• O=C1NC2=N[C@@H]3CCC[C@@H]3N2c2nn(Cc3ccc(C(F)(F)F)cc3)c(Nc3ccccc3)c21 = Condition met
• CN1C(=O)c2c(nn(Cc3ccc(-c4ccccc4)cc3)c2Nc2ccccc2)N2C[C@@H](COCc3ccccc3)N=C12 = Condition not met
• CN1C(=O)c2c(nn(Cc3ccc(-c4ccccc4)cc3)c2Nc2ccccc2)N2CCN=C12 = Condition not met
• C[C@H]1CN=C2N(C)C(=O)c3c(nn(Cc4ccc(-c5ccccc5)cc4)c3Nc3ccccc3)N21 = Condition not met
• CN1C(=N)c2c(nn(Cc3ccc(C(F)(F)F)cc3)c2Nc2ccccc2)N2C1=N[C@@H]1CCC[C@@H]12 = Condition not met
• CC(C)Nc1c2c(nn1Cc1ccc(-c3cccc(F)n3)cc1)N1C(=N[C@@H]3CCC[C@@H]31)N(C)C2=O = Condition not met
• CN1C(=O)c2c(nn(Cc3ccc(-c4ccccc4)cc3)c2Nc2ccccc2)N2CC(C)(C)CN=C12 = Condition not met
• CCCC(C)Nc1c2c(nn1Cc1ccc(-c3cccc(F)n3)cc1)N1C(=N[C@@H]3CCC[C@@H]31)N(C)C2=O (stereo not given in full) = Condition not met
• CCCNc1c2c(nn1Cc1ccc(-c3cccc(F)n3)cc1)N1C(=N[C@@H]3CCC[C@@H]31)N(C)C2=O = Condition not met
• CN1C(=O)c2c(nn(Cc3ccc(-c4cccc(F)n4)cc3)c2N2CCCC2)N2C1=N[C@@H]1CCC[C@@H]12 = Condition not met
• CC(C)CNc1c2c(nn1Cc1ccc(-c3cccc(F)n3)cc1)N1C(=N[C@@H]3CCC[C@@H]31)N(C)C2=O = Condition not met
• CN1C(=O)c2c(nn(Cc3ccc(-c4ccc(F)cn4)cc3)c2Nc2ccccc2)N2C1=N[C@@H]1CCC[C@@H]12 = Condition met
• CN1C(=O)c2c(nn(Cc3ccc(-c4cccc(F)n4)cc3)c2Nc2ccncc2)N2C1=N[C@@H]1CCC[C@@H]12 = Condition met
• CN1C(=O)c2c(nn(Cc3ccc(-c4ccccc4)cc3)c2Nc2ccccc2)N2CC(C3CCOC3)N=C12 (stereo not given) = Condition not met

---

assay: AUClast in C57BL/6 mouse brain at 10 mg/kg administered through oral gavage; assay type: ADME, organism-based; parameters: dose 10 mg/kg, time 0 - last, route oral
Readout: AUC(0-t)

* CN1C(=O)c2c(nn(Cc3ccc(-c4cccc(F)n4)cc3)c2Cc2ccc(F)cc2)N2C1=N[C@@H]1CCC[C@@H]12 | 109 ng·h/mL
* CN1C(=O)c2c(nn(Cc3ccc(S(N)(=O)=O)cc3)c2Nc2ccccc2)N2C1=N[C@@H]1CCC[C@@H]12 | 15 ng·h/mL
* CN1C(=O)c2c(nn(Cc3ccc(-c4ccccc4)cc3)c2Nc2ccccc2)N2C1=N[C@@H]1CCC[C@@H]12 | 542 ng·h/mL
* CN1C(=O)c2c(nn(Cc3ccc(C(F)(F)F)cc3)c2Nc2ccc(F)cc2)N2C1=N[C@@H]1CCC[C@@H]12 | 166 ng·h/mL
* CN1C(=O)c2c(nn(Cc3ccc(-c4cccc(F)n4)cc3)c2Cc2ccccc2)N2C1=N[C@@H]1CCC[C@@H]12 | 154 ng·h/mL
* CN1C(=O)c2c(nn(Cc3ccc(-c4cccc(F)n4)cc3)c2Oc2ccccc2)N2C1=N[C@@H]1CCC[C@@H]12 | 192 ng·h/mL
* CN1C(=O)c2c(nn(Cc3ccc(-c4ccccn4)cc3)c2Nc2ccccc2)N2C1=N[C@@H]1CCC[C@@H]12 | 21 ng·h/mL

---

assay: Selectivity ratio of Ki for recombinant full lenght human PDE4A to bovine brain PDE1
Readout: Ratio Ki

- CN1C(=N)c2c(nn(Cc3ccc(C(F)(F)F)cc3)c2Nc2ccccc2)N2C1=N[C@@H]1CCC[C@@H]12: 6.4
- CN1C(=O)c2c(nn(Cc3ccc(-c4cccc(F)n4)cc3)c2N(C)C)N2C1=N[C@@H]1CCC[C@@H]12: 9.2
- CN1C(=O)c2c(nn(Cc3ccc(-c4cc(F)ccn4)cc3)c2Nc2ccccc2)N2C1=N[C@@H]1CCC[C@@H]12: 5320
- CN1C(=O)c2c(nn(Cc3ccc(-c4cccc(F)n4)cc3)c2N2CCCC2)N2C1=N[C@@H]1CCC[C@@H]12: 29

---

target: cGMP-dependent 3',5'-cyclic phosphodiesterase (Homo sapiens); assay: Inhibition of recombinant full length human PDE2A using fluorescent labeled cAMP as substrate after 15 mins by IMAP assay
Sequence (O00408 whole entry): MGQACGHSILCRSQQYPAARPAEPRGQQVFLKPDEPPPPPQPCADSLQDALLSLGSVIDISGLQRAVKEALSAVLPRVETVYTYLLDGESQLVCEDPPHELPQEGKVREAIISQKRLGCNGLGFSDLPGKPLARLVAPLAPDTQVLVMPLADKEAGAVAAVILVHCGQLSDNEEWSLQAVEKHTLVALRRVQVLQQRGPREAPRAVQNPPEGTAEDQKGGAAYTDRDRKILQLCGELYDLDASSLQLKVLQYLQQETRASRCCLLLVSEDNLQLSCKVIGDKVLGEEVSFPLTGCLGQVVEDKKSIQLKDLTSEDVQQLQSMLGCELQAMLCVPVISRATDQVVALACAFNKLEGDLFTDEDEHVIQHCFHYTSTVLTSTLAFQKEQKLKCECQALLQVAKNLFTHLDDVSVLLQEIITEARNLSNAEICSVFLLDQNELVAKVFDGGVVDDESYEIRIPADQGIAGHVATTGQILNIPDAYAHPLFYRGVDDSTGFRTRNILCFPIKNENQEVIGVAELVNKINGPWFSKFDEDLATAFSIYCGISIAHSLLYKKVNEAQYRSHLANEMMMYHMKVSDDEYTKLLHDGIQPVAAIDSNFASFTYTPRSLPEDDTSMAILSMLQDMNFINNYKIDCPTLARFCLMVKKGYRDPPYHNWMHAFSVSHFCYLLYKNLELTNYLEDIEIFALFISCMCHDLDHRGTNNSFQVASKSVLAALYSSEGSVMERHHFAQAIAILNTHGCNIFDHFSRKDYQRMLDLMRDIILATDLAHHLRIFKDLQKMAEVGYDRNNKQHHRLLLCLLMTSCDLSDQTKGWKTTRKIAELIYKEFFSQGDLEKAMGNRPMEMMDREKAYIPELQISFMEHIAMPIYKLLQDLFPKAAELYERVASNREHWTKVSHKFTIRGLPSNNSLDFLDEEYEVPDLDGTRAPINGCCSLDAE
Readout: Ki

* CN1C(=O)c2c(nn(Cc3ccc(-c4ccccc4)cc3)c2Nc2ccccc2)N2C1=N[C@@H]1CCC[C@@H]12 | 37 µM
* CN1C(=O)c2c(nn(Cc3ccc(-c4ccccn4)cc3)c2Nc2ccccc2)N2C1=N[C@@H]1CCC[C@@H]12 | 24 µM
* CN1C(=O)c2c(nn(Cc3ccc(C(F)(F)F)cc3)c2Nc2ccccc2)N2C1=N[C@@H]1CCC[C@@H]12 | 39 µM
* CN1C(=O)c2c(nn(Cc3ccc(C(F)(F)F)nc3)c2Nc2ccccc2)N2C1=N[C@@H]1CCC[C@@H]12 | > 100 µM

---

biological target: 3',5'-cyclic-AMP phosphodiesterase 4A (Homo sapiens, UniProt P27815); assay: Inhibition of recombinant full lenght human PDE4A using fluorescent labeled cAMP as substrate after 15 mins by IMAP assay
Each entry falls in a class defined on Ki; the bands are bottom bin: < 900 nM; middle bin: ≥ 900 nM and < 6000 nM; top bin: ≥ 6000 nM

• CN1C(=O)c2c(nn(Cc3ccc(-c4cccc(F)n4)cc3)c2Sc2ccccc2)N2C1=N[C@@H]1CCC[C@@H]12 = middle bin
• CN1C(=O)c2c(nn(Cc3ccc(-c4ccccn4)cc3)c2Nc2ccccc2)N2C1=N[C@H]1CCC[C@H]12 = top bin
• CN1Cc2c(nn(Cc3ccc(-c4ccccn4)cc3)c2Nc2ccccc2)N2C1=N[C@@H]1CCC[C@@H]12 = top bin
• CN1C(=O)c2c(Nc3ccccc3)nn(CC3CCCC3)c2N2C1=N[C@@H]1CCC[C@@H]12 = middle bin
• CN1C(=O)c2c(nn(Cc3ccc(-c4cccc(F)n4)cc3)c2NC2CCCCC2)N2C1=N[C@@H]1CCC[C@@H]12 = middle bin
• CN1C(=O)c2c(nn(Cc3ccc(-c4ncccc4F)cc3)c2Nc2ccccc2)N2C1=N[C@@H]1CCC[C@@H]12 = bottom bin
• CN1C(=O)c2c(nn(Cc3ccc(-c4cccc(F)n4)cc3)c2NC2CCCC2)N2C1=N[C@@H]1CCC[C@@H]12 = middle bin
• CN1C(=O)c2c(nn(Cc3ccc(-c4cccc(F)n4)cc3)c2Cc2ccccc2)N2C1=N[C@@H]1CCC[C@@H]12 = bottom bin
• CN1C(=O)c2c(nn(Cc3ccc(C4CCCN4C)cc3)c2Nc2ccccc2)N2C1=N[C@@H]1CCC[C@@H]12 (some centres undefined) = middle bin
